Test: Microsome clearance assay, mouse
Type: in vitro ADME
Settings: male, CD-1, mouse, pooled liver microsomes, pH 7.4, mouse liver microsomes, 0.5 mg/ml protein, 1 mM NADPH, 60 minutes, read-out: Mouse Liver Microsome Clint (μL/min/mg protein)
Binning rule for recorded microsomal CLint at 5 μM: Low: < 40 µL/min/mg; Medium: ≥ 40 µL/min/mg and < 50 µL/min/mg; High: ≥ 50 µL/min/mg

Some entries whose results are on file:
Which class is correct for the following compound? `Cc1nn(C)c2c1-c1c(Cl)ccc3c1c(C)c(C(=O)O)n3CCCOc1cc(cc3cc(F)ccc13)SCc1cc(nn1C)CSC2` High

Quick check: band for `Cc1c(C(=O)O)n2c3ccc(Cl)c(c13)-c1c(nn(C)c1C(F)F)CSCc1cc(n(C)n1)CSc1cc(c3ccc(F)cc3c1)OCCC2` Medium

Note: place this compound into its band. Item: `Cc1c2c(nn1C)CSCc1cc(n(C)n1)CSc1cc(c3ccc(F)cc3c1)OCCCn1c(C(=O)O)c(CN(C)S(=O)(=O)C(F)(F)F)c3c-2c(Cl)ccc31` High

---
Into which category would you place `Cc1c(C(=O)O)n2c3ccc(Cl)c(c13)-c1c(nn3c1COCC3)CN(S(=O)(=O)c1ccccc1)Cc1cc(n(C)n1)CSc1cc(c3ccc(F)cc3c1)OCCC2` ? High

Class label required: `Cc1c(C(=O)O)n2c3ccc(Cl)c(c13)-c1c(nn3c1COCC3)CN(CCNS(C)(=O)=O)Cc1cc(n(C)n1)CSc1cc(c3ccc(F)cc3c1)OCCC2` Low

Sort into band: `Cc1c(C(=O)O)n2c3ccc(Cl)c(c13)-c1c(nn(C)c1C)CSCc1cc(n(C(C)C)n1)CSc1cc(c3ccc(F)cc3c1)OCCC2` Low

Band of Cc1c2c(nn1C)CSCc1cc(n(C)n1)CSc1cc(c3ccccc3c1)OCCCc1c(C(=O)O)n(C)c3c-2c(Cl)ccc13 [AZD5991, reference compound] ? Low
